Taken from ChEMBL document CHEMBL6103580.

Record form. Attribute: pIC50. Fill in for each entry.
Test system: MCF7
test protocol: Antiproliferative activity against human MCF7 cells assessed as inhibition of cell growth incubated for 72 hrs by MTT assay
Type: functional, cell-based
measurement context: MCF7, 72 h
When answering, recall that pIC50 equals minus log10 of the concentration in mol/L, and write that number alone.

-- ask Consider the compound shown here: CO[C@@H]1CC(=O)O[C@@H]1[C@@H](OC(=O)c1ccccc1)[C@H](COC(=O)c1ccccc1)OC(=O)c1ccccc1 What is its recorded pIC50?
-- reply 4.88

-- ask Consider the compound shown here: C=C[C@H](OCc1ccccc1)[C@H]1OC(=O)C[C@H]1OC What is its recorded pIC50?
-- reply 5.25

-- ask Consider the compound shown here: C=C[C@H](O)[C@H]1OC(=O)C[C@H]1OC What is its recorded pIC50?
-- reply 5.37

###

Record form. Attribute: IC50. Fill in for each entry.
Tested on: MDA-MB-231
test protocol: Antiproliferative activity against human MDA-MB-231 cells assessed as inhibition of cell growth incubated for 72 hrs by MTT assay
Format: functional, cell-based
measurement context: MDA-MB-231, 72 h
Give the quantity in µM, number only.

-- ask Consider the molecule shown here: CO[C@@H]1CC(=O)O[C@@H]1[C@@H](OC(C)=O)[C@@H](COC(=O)c1ccccc1)OC(C)=O What is its recorded IC50?
-- reply 28.4

-- ask Consider the molecule shown here: O=C1C[C@H]2O[C@@H]3CO[C@@H]3[C@H]2O1 What is its recorded IC50?
-- reply 5.36

-- ask Consider the molecule shown here: O=C1C[C@@H](O)[C@@H]([C@@H](O)[C@H](O)CO)O1 What is its recorded IC50?
-- reply 5.32

###

assay system: Cholinesterase (Homo sapiens) (UniProt P06276)
Sequence (P06276 whole entry): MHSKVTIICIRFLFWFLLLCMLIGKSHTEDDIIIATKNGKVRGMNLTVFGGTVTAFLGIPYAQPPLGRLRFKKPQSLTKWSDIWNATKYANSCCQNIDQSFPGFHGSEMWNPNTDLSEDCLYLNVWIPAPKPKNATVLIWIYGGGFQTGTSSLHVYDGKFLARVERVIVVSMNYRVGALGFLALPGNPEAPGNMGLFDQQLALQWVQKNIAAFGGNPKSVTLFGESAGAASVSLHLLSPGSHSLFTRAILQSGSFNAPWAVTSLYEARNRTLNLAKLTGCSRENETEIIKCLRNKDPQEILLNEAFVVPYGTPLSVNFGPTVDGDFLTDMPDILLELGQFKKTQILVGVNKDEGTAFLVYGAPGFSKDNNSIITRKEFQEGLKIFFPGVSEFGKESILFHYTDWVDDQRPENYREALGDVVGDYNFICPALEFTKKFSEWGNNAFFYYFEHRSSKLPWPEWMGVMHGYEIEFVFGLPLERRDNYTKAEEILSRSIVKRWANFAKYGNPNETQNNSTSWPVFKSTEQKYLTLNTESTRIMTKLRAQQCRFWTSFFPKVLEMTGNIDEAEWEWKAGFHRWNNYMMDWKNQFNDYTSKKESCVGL
test protocol: Inhibition of human BChE at 100 uM using acetylthiocholine iodide as substrate by DTNB reagent based Ellman spectrophotometric analysis relative to control
The source made the active and inactive calls. The rule behind the calls is not given here.
outcome measure: inhibition

Illustrative cases are given below, each with its answer.
| smiles entry | assay system | outcome measure | reported measurement |
| --- | --- | --- | --- |
| CO[C@H]1CC(=O)O[C@H]1[C@H](OC(C)=O)[C@@H](COC(=O)c1ccccc1)OC(C)=O | Cholinesterase (Homo sapiens) (UniProt P06276) | inhibition | 85% |
| CO[C@@H]1CC(=O)O[C@@H]1[C@@H](OC(C)=O)[C@H](COC(=O)c1ccccc1)OC(C)=O | Cholinesterase (Homo sapiens) (UniProt P06276) | inhibition | 35% |
| O=C1C[C@H]2O[C@H](CI)[C@H](O)[C@H]2O1 | Cholinesterase (Homo sapiens) (UniProt P06276) | inhibition | inactive |
| C=C[C@H](O)[C@H]1OC(=O)C[C@H]1OC | Cholinesterase (Homo sapiens) (UniProt P06276) | inhibition | inactive |
| CO[C@H]1CC(=O)O[C@H]1[C@H](O)[C@H](O)COC(=O)c1ccccc1 | Cholinesterase (Homo sapiens) (UniProt P06276) | inhibition | inactive |

-- ask Consider the compound shown here: CO[C@@H]1CC(=O)O[C@@H]1[C@H]1OC(=O)O[C@H]1COC(=O)c1ccccc1 What is its recorded inhibition?
-- reply 51%

-- ask Consider the compound shown here: C=C[C@@H](OCc1ccccc1)[C@@H]1OC(=O)C[C@@H]1O What is its recorded inhibition?
-- reply 13%

-- ask Consider the compound shown here: CO[C@@H]1CC(=O)O[C@@H]1[C@@H](OC(=O)c1ccccc1)[C@H](COC(=O)c1ccccc1)OC(=O)c1ccccc1 What is its recorded inhibition?
-- reply 40%

-- ask Consider the compound shown here: Nc1c2c(nc3ccccc13)CCCC2 What is its recorded inhibition?
-- reply 96%

-- ask Consider the compound shown here: O=C1C[C@@H]2O[C@@H](CI)[C@@H](O)[C@@H]2O1 What is its recorded inhibition?
-- reply inactive
